Listed here are compounds together with their documented [14C]oxoglutarate transport.
- target-entity: Odc2p (Saccharomyces cerevisiae)
- Construct: made in house; host or cells: S. cerevisiae odc1Δodc2Δ (YPH499 background) carrying pYES2-based pODC2; purified from mitochondria on Ni-NTA agarose
- test-name: Dependence on internal substrate of [14C]oxoglutarate uptake into proteoliposomes reconstituted with recombinant Odc2p
- Type: biochemical
- test-parameters: Odc2p; proteoliposomes preloaded with 20 mM internal substrate; 0.6 mM [14C]oxoglutarate; 45 seconds
experimental-readout: [14C]oxoglutarate transport (mmol/min per g protein)

1) O=C(O)/C=C\C(=O)O [Maleate]	2.6
2) O=C(O)CCCCCC(=O)O [Pimelate]	10.4
3) O=C(O)CCCCC(=O)O [Adipate]	16.7
4) O=C(O)/C=C/C(=O)O [Fumarate]	2.4
5) O=C(O)CCCCCCC(=O)O [Suberate]	0.4
6) O=C(O)C[C@H](O)C(=O)O [L-malate]	11.4
7) O=C(O)CC(=O)O [Malonate]	2.2

----------
- target-entity: Odc2p (Saccharomyces cerevisiae, UniProt Q99297)
- Construct: made in house; host or cells: S. cerevisiae odc1Δodc2Δ (YPH499 background) carrying pYES2-based pODC2; purified from mitochondria on Ni-NTA agarose
- Sequence (Q99297 1-307): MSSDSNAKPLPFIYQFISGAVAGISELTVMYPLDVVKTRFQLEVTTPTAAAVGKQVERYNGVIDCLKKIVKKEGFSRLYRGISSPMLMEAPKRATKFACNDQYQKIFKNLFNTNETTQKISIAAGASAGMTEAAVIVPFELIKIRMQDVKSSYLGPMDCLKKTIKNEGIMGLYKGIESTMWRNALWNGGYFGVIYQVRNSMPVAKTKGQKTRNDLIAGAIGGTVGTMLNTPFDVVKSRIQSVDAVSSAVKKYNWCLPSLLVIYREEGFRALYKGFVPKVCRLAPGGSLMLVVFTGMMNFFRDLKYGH
- test-name: Kinetic constants (Km, Vmax, Ki) of recombinant purified Odc2p in proteoliposomes
- Type: biochemical
pKi: −log10 of the molar value.
experimental-readout: pKi

1. O=C(O)CC(O)(CC(=O)O)C(=O)O [Citrate]	2.23

----------
- target-entity: Odc1p (Saccharomyces cerevisiae, UniProt Q03028)
- Construct: made in house; host or cells: S. cerevisiae odc1Δodc2Δ (YPH499 background) carrying pYES2-based pODC1; purified from mitochondria on Ni-NTA agarose
- Sequence (Q03028 whole entry): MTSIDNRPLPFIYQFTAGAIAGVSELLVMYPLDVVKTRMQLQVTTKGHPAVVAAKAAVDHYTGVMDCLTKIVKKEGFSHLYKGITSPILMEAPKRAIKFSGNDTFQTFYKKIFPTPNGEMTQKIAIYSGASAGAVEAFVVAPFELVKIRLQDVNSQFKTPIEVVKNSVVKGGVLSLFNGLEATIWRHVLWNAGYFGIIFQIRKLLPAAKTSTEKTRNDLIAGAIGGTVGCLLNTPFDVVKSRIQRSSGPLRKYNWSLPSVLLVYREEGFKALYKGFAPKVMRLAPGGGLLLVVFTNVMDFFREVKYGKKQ
- test-name: Effect of inhibitors and external compounds on the [14C]oxoglutarate/oxoglutarate exchange by proteoliposomes reconstituted with Odc1p
- Assay type: biochemical
- test-parameters: Odc1p; Table III
experimental-readout: inhibition of [14C]oxoglutarate/oxoglutarate exchange (in words)

1. COC(CNC(=O)c1ccccc1OCC(=O)O)[CH2][Hg][OH] (centres unmarked)	inhibited strongly
2. O=S(=O)(O)c1cc[c]([Hg][Cl])cc1 [p-Chloromercuriphenylsulfonate]	inhibited strongly
3. c1ccc(-c2ccnc3c2ccc2c(-c4ccccc4)ccnc23)cc1	inhibited strongly
4. [Cl][Hg][Cl] [HgCl2, mercuric chloride]	inhibited strongly
5. O=C(O)CC(C(=O)O)c1ccccc1 (centres unmarked) [Phenylsuccinate]	rather poorly
6. N#C/C(=C\c1ccccc1)C(=O)O [α-Cyanocinnamate]	inhibited strongly
7. CCCCC(C(=O)O)C(=O)O [Butylmalonate]	rather poorly
8. Cc1ncc(COP(=O)(O)O)c(C=O)c1O [Pyridoxal 5′-phosphate]	inhibited strongly
